- system-name: Solute carrier family 2, facilitated glucose transporter member 1 (Homo sapiens) (UniProt P11166)
- Sequence (P11166 whole entry): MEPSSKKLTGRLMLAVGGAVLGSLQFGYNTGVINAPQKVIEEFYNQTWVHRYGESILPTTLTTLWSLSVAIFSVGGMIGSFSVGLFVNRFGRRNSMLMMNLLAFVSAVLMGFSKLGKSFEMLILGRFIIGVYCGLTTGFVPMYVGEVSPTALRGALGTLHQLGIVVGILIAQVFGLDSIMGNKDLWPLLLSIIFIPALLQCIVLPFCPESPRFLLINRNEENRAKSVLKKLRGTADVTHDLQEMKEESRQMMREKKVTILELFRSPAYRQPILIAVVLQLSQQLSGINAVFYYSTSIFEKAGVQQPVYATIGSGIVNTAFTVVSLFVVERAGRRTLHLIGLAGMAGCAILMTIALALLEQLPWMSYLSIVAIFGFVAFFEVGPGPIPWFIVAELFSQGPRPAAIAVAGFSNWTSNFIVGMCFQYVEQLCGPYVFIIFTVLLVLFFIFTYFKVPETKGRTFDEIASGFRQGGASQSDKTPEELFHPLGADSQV
- method: ST_JUDE_LEISH: Cytotoxicity at 2uM final concentration against transgenic Leishmania Mexicana promastigotes LmGLUT1 that are glucose transport deficient and complemented with the human glucose transporter GLUT1. Activity is measured by DNA content using SYBR green in vitro
- Type: functional
Hi, to clarify the labels: Met covers inhibition from 2% upward, Not met covers anything below 2%.

Before answering, review these 3 worked examples.
# compound, answer-label
records = [
    ("O=C(Nc1cccc(CN2CCCN(Cc3cccc(F)c3)CC2)c1)c1ccc(Cl)c(Cl)c1", "Met"),
    ("Cc1cc(NC(=O)c2cccs2)ccc1OC1CCN(Cc2ccc(F)cc2)C1 (stereo not drawn)", "Not met"),
    ("Nc1ncc(-c2cn[nH]c2)cc1-c1nc2cc(Cl)cnc2[nH]1", "Met"),
]

query: Does the compound COc1cccc(-c2cc(C(F)(F)F)n3ncc(C(=O)Nc4cc(C)ccc4O)c3n2)c1 have recorded inhibition that is 2% or more?
result: Met

query: Decide: inhibition of Cc1c(CNCCCNc2nc3ccccc3[nH]2)[nH]c2cc(Cl)cc(Cl)c12 >= 2%?
result: Met

query: Decide: inhibition of O=C(NC1CCC(CCN2Cc3cccc(C(F)(F)F)c3C2)CC1)c1cccc(-c2cccnc2)c1 (stereo not drawn) >= 2%?
result: Met

query: Please tell me: is the compound COc1ccc(N(C)Cc2cnc3nc(N)nc(N)c3n2)cc1 at or over 2% in terms of inhibition?
result: Not met
